B1: LINE1-full (parent)
chain: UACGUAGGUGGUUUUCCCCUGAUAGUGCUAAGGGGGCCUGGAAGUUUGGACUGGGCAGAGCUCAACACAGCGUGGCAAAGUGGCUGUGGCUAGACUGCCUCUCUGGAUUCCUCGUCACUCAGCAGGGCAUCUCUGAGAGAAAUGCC

Variants of: B1
test: self-cleavage, relative activity (ratio to wild type); higher = more cleavage; in vitro, sequencing; the parent is a self-cleaving ribozyme

mutation_list: C28A U47C
self-cleavage: 0.63
//
mutation_list: U12G G21A
self-cleavage: 1.19
//
mutation_list: U20A U52A
self-cleavage: 0.54
//
mutation_list: U39C A129U
self-cleavage: 1.05
//
mutation_list: U119C G122C
self-cleavage: 2
//
mutation_list: A59G U91A
self-cleavage: 0.09
//
mutation_list: U96A A107U
self-cleavage: 0.08
//
mutation_list: U81C G89A
self-cleavage: 0.06
//
mutation_list: U62C U109C
self-cleavage: 0.08
//
mutation_list: U102C C118U
self-cleavage: 1.59
//
mutation_list: C68G
self-cleavage: 0.05
//
mutation_list: U39C A141G
self-cleavage: 1.11
//
mutation_list: G53A U132C
self-cleavage: 1.29
//
mutation_list: G25A A142U
self-cleavage: 0.93
//
mutation_list: A94G A142G
self-cleavage: 0.41
//
mutation_list: U96C G144A
self-cleavage: 0.25
//
mutation_list: G80C A121G
self-cleavage: 1.18
//
mutation_list: U5C U15C
self-cleavage: 1
//
mutation_list: G33A U109C
self-cleavage: 1.05
//
mutation_list: A30G G41U
self-cleavage: 1.66
//
mutation_list: U46A A65G
self-cleavage: 0.02
//
mutation_list: A30G U39C
self-cleavage: 1.13
//
mutation_list: A6G G106A
self-cleavage: 0.66
//
mutation_list: C16U G40U
self-cleavage: 0.6
//
mutation_list: C63A U81A
self-cleavage: 0.06
//
mutation_list: A50G U91C
self-cleavage: 0.35
//
mutation_list: U52C A129U
self-cleavage: 1.61
//
mutation_list: A57G G60A
self-cleavage: 0.06
//
mutation_list: A50U A138C
self-cleavage: 1.21
//
mutation_list: C76U A92G
self-cleavage: 0.06
//
mutation_list: G48A U87C
self-cleavage: 0.12
//
mutation_list: C56A
self-cleavage: 0.05
//
mutation_list: A2C U73A
self-cleavage: 1.29
//
mutation_list: U62C U104A
self-cleavage: 0.05
//
mutation_list: U5C U119A
self-cleavage: 0.98
//
mutation_list: U14C C66U
self-cleavage: 0.03
//
mutation_list: U29C A121G
self-cleavage: 1.43
//
mutation_list: C118U U134A
self-cleavage: 1.11
//
mutation_list: U52A A129G
self-cleavage: 1.3
//
mutation_list: A64G G144A
self-cleavage: 0.21
//
mutation_list: G48U U52A
self-cleavage: 0.81
//
mutation_list: U20C U134A
self-cleavage: 0.96
//
mutation_list: A117C G139A
self-cleavage: 1.65
//
mutation_list: A6U A57U
self-cleavage: 0.08
//
mutation_list: A22G G82A
self-cleavage: 1.94
//
mutation_list: A65U C111U
self-cleavage: 0.24
//
mutation_list: U39A U96A
self-cleavage: 0.04
//
mutation_list: A69U U81A
self-cleavage: 0.01
//
mutation_list: G7A U85C
self-cleavage: 0.11
//
mutation_list: U26C C38U
self-cleavage: 1.29
//
mutation_list: G48A
self-cleavage: 1.28
//
mutation_list: G33U A141G
self-cleavage: 1.32
//
mutation_list: U23C U100C
self-cleavage: 1.79
//
mutation_list: A30G U100C
self-cleavage: 1.07
//
mutation_list: U85C A136G
self-cleavage: 0.2
//
mutation_list: G55A U87C
self-cleavage: 0.04
//
mutation_list: C56U A65G
self-cleavage: 0.03
//
mutation_list: A43G U100A
self-cleavage: 0.89
//
mutation_list: A2G U46C
self-cleavage: 0.72
//
mutation_list: A50G A107G
self-cleavage: 1.1
//
mutation_list: U26C A138C
self-cleavage: 1.28
//
mutation_list: U46C G114A
self-cleavage: 1.22
//
mutation_list: U12C G144A
self-cleavage: 1.08
//
mutation_list: A79U C99A
self-cleavage: 0.31
//
mutation_list: G32C U81A
self-cleavage: 1.9
//
mutation_list: U46C A94C
self-cleavage: 0.1
//
mutation_list: U112C A121G
self-cleavage: 1.71
//
mutation_list: U39A G114A
self-cleavage: 1.19
//
mutation_list: C3A U134C
self-cleavage: 0.92
//
mutation_list: C68U U96C
self-cleavage: 0.04
//
mutation_list: C37A U96C
self-cleavage: 0.08
//
mutation_list: A59G C116A
self-cleavage: 0.04
//
mutation_list: A77G U109G
self-cleavage: 0
//
mutation_list: A24G G54A
self-cleavage: 0.67
//
mutation_list: C84U A140G
self-cleavage: 0.07
//
mutation_list: G25A U104A
self-cleavage: 1.03
//
mutation_list: C17U A59G
self-cleavage: 0.17
//
mutation_list: G32U U119A
self-cleavage: 0
//
mutation_list: U109A C111U
self-cleavage: 1.56
//
mutation_list: C68U G135A
self-cleavage: 0.22
//
mutation_list: U5G U12C
self-cleavage: 0.77
//
mutation_list: U39G U47C
self-cleavage: 0.52
//
mutation_list: G34A A121U
self-cleavage: 1.22
//
mutation_list: U1C A136U
self-cleavage: 1.15
//
mutation_list: G21A A94G
self-cleavage: 0.1
//
mutation_list: U52A U109C
self-cleavage: 1.21
//
mutation_list: U85C U132C
self-cleavage: 0.24
//
mutation_list: U62A C84U
self-cleavage: 0.04
//
mutation_list: C90A U96C
self-cleavage: 0.04
//
mutation_list: U39C A65G
self-cleavage: 0.09
//
mutation_list: U26A G53A
self-cleavage: 1.44

Sourced from the RNAGym collection of RNA variant scans (doi:10.7554/elife.90254)
